tested on: OVCAR-5 ovarian; test: NCI-60 one-dose screen, 48 h; details: 10 µM unless noted
Compounds without any hit were thinned out: in the full panel of roughly 83,000, 20% have a hit. The source made the active and inactive calls. The calls were made as follows: active = growth percent below 10; inactive = the rest.
# output must be one of active, inactive

[[record]]
compound = "CCCCCCCCCCCCCC[n+]1cccc(C(N)=O)c1"
label = "inactive"

[[record]]
compound = "C=C(C)[C@@H]1CC[C@]2(C(N)=O)CC[C@]3(C)[C@H](CC[C@@H]4[C@@]5(C)C/C(=C/c6cccnc6)[C@H](O)C(C)(C)[C@@H]5CC[C@]43C)[C@@H]12"
label = "inactive"

[[record]]
compound = "COc1cc2c(cc1OCCCCCOc1ccc(-n3c(C)nc4ccccc4c3=O)cc1)N=C[C@@H]1CCCN1C2=O"
label = "inactive"

[[record]]
compound = "Fc1ccc(NC(=S)c2ccccc2)cc1"
label = "inactive"


Exam item: For COCCCNc1nc(NC(=O)c2cc(Br)cc(C(F)(F)F)c2)cc(-c2cccnc2)n1 , what call appears in the results of this test?
Marked response: inactive

Exam item: Moving on to COc1ccc2nc3ccccc3c(NCCNCCO)c2c1
Marked response: active

Exam item: Moving on to C=CC1=C(C)C2=NC1=CC1=NC(=CC3=C(C)C4=C(O)C(C(=O)O)C(=C5NC(=C2)C(C)C5CCC(=O)O)C4=N3)C(CC)=C1C (centres undefined)
Marked response: inactive

Exam item: Moving on to CCN(CC)c1ccc2cc(C(Nc3ccc(Cl)cc3)c3nnnn3C(C)(C)C)c(=O)oc2c1 (centres undefined)
Marked response: inactive

Exam item: Moving on to N#Cc1ccc(-c2ccc(COc3ccc(CC4SC(=O)NC4=O)cc3)cc2)cc1 (centres undefined)
Marked response: inactive

Exam item: Moving on to Cc1ccc(-c2cc(-c3ccc(C)cc3)nc(NCCNc3ccnc4cc(Cl)ccc34)n2)cc1
Marked response: active

Exam item: Moving on to COc1cc(Cl)cc(-c2nn(C(=O)NS(=O)(=O)c3ccccc3)cc2-c2ccncc2)c1
Marked response: inactive
